Reference source: patent US20230092163A1

# experimental_system: STING (Homo sapiens, UniProt Q86WV6, G230A/H232R/R293Q/R71H)
# Sequence (Q86WV6 whole entry R71H/G230A/H232R/R293Q): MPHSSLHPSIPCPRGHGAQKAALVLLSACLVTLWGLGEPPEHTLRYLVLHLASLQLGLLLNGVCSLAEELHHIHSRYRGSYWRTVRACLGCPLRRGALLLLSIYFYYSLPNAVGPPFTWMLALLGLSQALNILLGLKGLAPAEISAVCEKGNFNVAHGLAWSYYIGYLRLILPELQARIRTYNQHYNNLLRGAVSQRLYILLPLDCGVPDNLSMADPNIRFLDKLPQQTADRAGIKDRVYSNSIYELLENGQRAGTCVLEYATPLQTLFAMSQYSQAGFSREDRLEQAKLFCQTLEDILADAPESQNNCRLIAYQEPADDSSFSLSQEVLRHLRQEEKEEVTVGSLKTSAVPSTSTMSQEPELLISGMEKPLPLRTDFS
# assay_explanation: STING reporter assay: THP1-Dual KO-IFNAR2 cells stimulated with 2′3′cGAMP, luciferase reporter activity
# Type: cell-based
# test_context: 15 μM 2′3′cGAMP, 24h, class symbols

>  <compound>
Cn1ccc2ccc(NC(=O)Nc3ccc(C(F)(F)F)cc3)cc21 [Compound 268]

>  <EC50>
5000 to 100000 nM

$$$$
>  <compound>
COc1ccc2ccc(Nc3ccc4cc[nH]c4c3)nc2c1 [Compound 587]

>  <EC50>
1000 to 5000 nM

$$$$
>  <compound>
O=C(NCCC1CC1)Nc1ccc2cc[nH]c2c1 [Compound 162]

>  <EC50>
5000 to 100000 nM

$$$$
>  <compound>
O=C(Nc1cnc(N2CC(F)(F)C2)c(F)c1)Nc1ccc2c(F)c[nH]c2c1 [Compound 531]

>  <EC50>
200 to 1000 nM

$$$$
>  <compound>
N#Cc1cc(NC(=O)Nc2ccc(C(F)(F)F)cc2)cc2[nH]ccc12 [Compound 245]

>  <EC50>
40 to 200 nM

$$$$
>  <compound>
O=C(Nc1ccc(S(F)(F)(F)(F)F)cc1)Nc1ccc2[nH]ccc2c1 [Compound 291]

>  <EC50>
1000 to 5000 nM

$$$$
>  <compound>
O=S(=O)(c1ccc(Nc2ccc3cc[nH]c3c2)nc1)N1CCCCC1 [Compound 422]

>  <EC50>
5000 to 100000 nM

$$$$
>  <compound>
FC(F)(F)c1nc(Nc2cc(Cl)c3cc[nH]c3c2)ccc1Cl [Compound 568]

>  <EC50>
200 to 1000 nM

$$$$
>  <compound>
O=C(Nc1ccc(N2CCC(F)(F)CC2)nc1)Nc1ccc2cc[nH]c2c1 [Compound 247]

>  <EC50>
1000 to 5000 nM

$$$$

###

# experimental_system: STING (Homo sapiens, UniProt Q86WV6, G230A/H232R/R293Q/R71H)
# assay_explanation: STING reporter assay: THP1-Dual KO-IFNAR2 cells stimulated with 2′3′cGAMP, luciferase reporter activity
# Assay type: cell-based
# test_context: 15 μM 2′3′cGAMP, 24h, class symbols
pEC50: −log10 of the molar value.
We begin with a simple list: items and their reported pEC50.

>  <structure_string>
O=C(NCc1cc(Cl)cc(C(F)(F)F)c1)Nc1cnc2cc[nH]c2c1

>  <pEC50>
5.30 to 6.00

$$$$
>  <structure_string>
Cc1nc(Nc2ccc3cc[nH]c3c2)ccc1Nc1ccc2cc[nH]c2c1

>  <pEC50>
4.00 to 5.30

$$$$
>  <structure_string>
CC(C)(C)c1cc(NC(=O)Nc2ccc3cc[nH]c3c2)on1

>  <pEC50>
4.00 to 5.30

$$$$
>  <structure_string>
O=C(Nc1ccc2[nH]ccc2c1)Nc1cc(C2CCC2)no1

>  <pEC50>
4.00 to 5.30

$$$$
>  <structure_string>
O=C(NCc1cc(Cl)cc(C(F)(F)F)c1)Nc1ccc2[nH]ccc2c1

>  <pEC50>
4.00 to 5.30

$$$$

###

// pEC50 lookup, one value per entry
# experimental_system: STING (Homo sapiens, UniProt Q86WV6, G230A/H232R/R293Q/R71H)
# assay_explanation: STING reporter assay: THP1-Dual KO-IFNAR2 cells stimulated with 2′3′cGAMP, luciferase reporter activity
# Type: cell-based
# test_context: 15 μM 2′3′cGAMP, 24h, class symbols
pEC50: −log10 of the molar value.

>  <molecule>
CC(NC(=O)Nc1cc(Cl)c2cc[nH]c2c1)c1cc(Cl)cc(C(F)(F)F)c1 (stereo not drawn)

>  <pEC50>
6.00 to 6.70

$$$$
>  <molecule>
FC(F)(F)c1cc(Cl)cc2nc(Nc3ccc4cc[nH]c4c3)ccc12

>  <pEC50>
6.00 to 6.70

$$$$
>  <molecule>
COCCc1cc(NC(=O)Nc2ccc(C(F)(F)F)cc2)cc2[nH]ccc12

>  <pEC50>
5.30 to 6.00

$$$$
>  <molecule>
c1cnc2nc(Nc3ccc4cc[nH]c4c3)ccc2c1

>  <pEC50>
4.00 to 5.30

$$$$
>  <molecule>
CC(C)c1ccc(NC(=O)Nc2ccc3cc[nH]c3c2)cc1

>  <pEC50>
6.00 to 6.70

$$$$
>  <molecule>
N#Cc1cc(Nc2ccc3cc[nH]c3c2)cc(Nc2ccc3cc[nH]c3c2)n1

>  <pEC50>
6.00 to 6.70

$$$$
>  <molecule>
CC(C)c1ccc(-c2nnc(NC(=O)Nc3ccc4cc[nH]c4c3)s2)cc1

>  <pEC50>
6.00 to 6.70

$$$$
>  <molecule>
CC[C@H](NC(=O)Nc1ccc2cc[nH]c2c1)c1ccccc1

>  <pEC50>
4.00 to 5.30

$$$$
>  <molecule>
CN(C(=O)Nc1ccc(C(F)(F)F)cc1)c1ccc2cc[nH]c2c1

>  <pEC50>
4.00 to 5.30

$$$$
>  <molecule>
O=C(Nc1ccnc(C(F)(F)F)c1)Nc1ccc2cc[nH]c2c1

>  <pEC50>
5.30 to 6.00

$$$$
>  <molecule>
Fc1cc2ccc(Nc3ccc4cc[nH]c4c3)nc2cc1C(F)(F)F

>  <pEC50>
6.00 to 6.70

$$$$
>  <molecule>
CNC(=O)Cc1c[nH]c2cc(NC(=O)Nc3ccc(C(F)(F)F)cc3)ccc12

>  <pEC50>
4.00 to 5.30

$$$$
>  <molecule>
CN(C(=O)Nc1ccc(C(F)(F)F)cc1)c1ccc2[nH]ccc2c1

>  <pEC50>
4.00 to 5.30

$$$$
>  <molecule>
O=C(Nc1ccc2cc[nH]c2c1)Nc1ccc2cc[nH]c2c1

>  <pEC50>
5.30 to 6.00

$$$$
>  <molecule>
O=C(Nc1cccc(C(F)(F)F)c1)Nc1cc(CCO)c2cc[nH]c2c1

>  <pEC50>
5.30 to 6.00

$$$$
>  <molecule>
O=C(NCCc1ccc(OC(F)(F)F)cc1)Nc1ccc2cc[nH]c2c1

>  <pEC50>
6.00 to 6.70

$$$$
>  <molecule>
O=C(Nc1ccc(C(F)(F)F)cc1)Nc1ccc2c3c([nH]c2c1)CCCC3

>  <pEC50>
4.00 to 5.30

$$$$
>  <molecule>
O=C(Nc1cccc(C(F)(F)F)c1)Nc1ccc2cc[nH]c2c1

>  <pEC50>
6.00 to 6.70

$$$$
